# assayed-system: Shiga toxin type 1 subunit A (StxA1) (Bacteriophage H30, UniProt P10149)
# Sequence (P10149 23-273 limits assumed): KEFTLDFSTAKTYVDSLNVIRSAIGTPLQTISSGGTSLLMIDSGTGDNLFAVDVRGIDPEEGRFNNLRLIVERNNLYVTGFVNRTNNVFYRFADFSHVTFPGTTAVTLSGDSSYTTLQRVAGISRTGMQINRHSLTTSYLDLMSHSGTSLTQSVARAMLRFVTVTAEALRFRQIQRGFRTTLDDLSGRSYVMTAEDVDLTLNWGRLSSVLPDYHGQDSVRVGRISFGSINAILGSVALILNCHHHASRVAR
# assay-summary: biochemical
# Assay type: biochemical, Escherichia coli
# reported-conditions: read-out: apparent IC50 for StxA1
measured-endpoint: IC50

1) O=C(OCc1ccc(F)cc1)c1cc(-c2ccco2)nc2ccccc12: ~40 µM

* * *

# assayed-system: Shiga toxin type 1 subunit A (StxA1) (Bacteriophage H30)
# assay-summary: biochemical
# Type: biochemical, Escherichia coli
pIC50: −log10 of the molar value.
measured-endpoint: pIC50

1) O=C(CSc1nnc[nH]1)N(Cc1ccc(F)cc1)C1CCCCC1: 3.30

* * *

# assayed-system: Shiga toxin type 1 subunit A (StxA1) (Bacteriophage H30)
# assay-summary: biochemical
# Format: biochemical, Escherichia coli
# reported-conditions: read-out: StxA1 IC50
pIC50: −log10 of the molar value.
measured-endpoint: pIC50

1. O=C(OCc1ccc(F)cc1)c1cc(-c2ccco2)nc2ccccc12 [Compound 8]: 4.40
